All values here come from BigSolDB 2.1.

# Applied Conditions: in furfural, 283.15 K
Answer each item with its documented solubility (mole fraction).
Give bare numbers.

Reported solubility (mole fraction) for C[C@H](CCC(=O)O)[C@H]1CC[C@H]2[C@@H]3CC[C@@H]4C[C@H](O)CC[C@]4(C)[C@H]3C[C@H](O)[C@]12C : what is it?
0.000227

Switching to the query record.
Reported solubility (mole fraction) for C[C@H](CCC(=O)O)[C@H]1CC[C@H]2[C@@H]3[C@H](O)C[C@@H]4C[C@H](O)CC[C@]4(C)[C@H]3C[C@H](O)[C@]12C : what is it?
3.55e-05

====

# Applied Conditions: in n-hexanol, 313.15 K
Answer each item with its documented solubility (mole fraction).
One number for each entry.

Reported solubility (mole fraction) for C[C@H](CCC(=O)O)[C@H]1CC[C@H]2[C@@H]3[C@H](O)C[C@@H]4C[C@H](O)CC[C@]4(C)[C@H]3C[C@H](O)[C@]12C : what is it?
0.0202

Switching to the query record.
Reported solubility (mole fraction) for C[C@H](CCC(=O)O)[C@H]1CC[C@H]2[C@@H]3CC[C@@H]4C[C@H](O)CC[C@]4(C)[C@H]3C[C@H](O)[C@]12C : what is it?
0.0125
